experimental_details: Solubility and pH in water for injection (24 hours equilibration, 25° C.)
Assay type: physicochemical
experimental_parameters: pH 9.93, thermodynamic from solid; water for injection, 24 hours of equilibration, 25° C.
readout_name: solubility at 24 h (µg/mL)
Your answer is read as µg/mL, so omit the unit and give the number.

Q. Give its solubility at 24 h value. Item: COc1ccc2[nH]cc(CCN(C)C)c2c1 [free base, 5-Methoxy-N,N-dimethyltryptamine, reference compound]
A. 3290

---

experimental_details: Solubility and pH in water for injection (24 hours equilibration, 25° C.)
Assay type: physicochemical
experimental_parameters: pH 6.84, thermodynamic from solid; water for injection, 24 hours of equilibration, 25° C.
readout_name: solubility at 24 h

Q. Give its solubility at 24 h value. Item: Br.COc1ccc2[nH]cc(CCN(C)C)c2c1 [5-MeO-DMT HBr]
A. > 200 mg/mL
